- System: human Factor 7 mRNA
- assay.summary: Dose-dependent antisense inhibition of human Factor 7 in HepB3 cells, electroporation
- Format: cell-based
- condition: 12.5 μM, approx. 16 hours (Table 15, Example 7)
Strand notation (5' to 3'): a small letter for the sugar, then the base; units joined by * are phosphorothioate-linked, units joined directly phosphodiester-linked; [ ] holds rarer units or linkages, { } end groups; capitals alone tell only the bases. e = 2'-O-(2-methoxyethyl) (MOE); [5mC] = 5-methylcytosine; d = 2'-deoxy (DNA)
observation.type: percent inhibition of Factor 7 mRNA, relative to untreated control cells (%)
Hi! Could you send only the number? It should be in %, unit omitted.

Please review the entries below; each comes with its answer.
substance	recorded.number
422086 (antisense eT*eG*e[5mC]*eA*eT*dG*dG*dT*dG*dA*dT*dG*d[5mC]*dT*dT*e[5mC]*eT*eG*eA*eA) [compound 422086]	44
422130 (antisense eG*e[5mC]*e[5mC]*eT*eG*dA*dG*dG*d[5mC]*d[5mC]*dA*dG*d[5mC]*dA*dG*eA*eT*e[5mC]*eA*e[5mC]) [compound 422130]	59

Return percent inhibition of Factor 7 mRNA, relative to untreated control cells (reported value) for this substance: 422150 (antisense eG*e[5mC]*eA*dT*dG*dG*dT*dG*dA*dT*dG*d[5mC]*dT*dT*d[5mC]*dT*dG*eA*eA*eT) [compound 422150]
40

Values from patent US9029337B2
